Parameter: IC50. Scope: all listed entries.
Biological target: EGFR Δ746-750 mutant (Homo sapiens (Human), UniProt P00533, DEL746-750)
Sequence (P00533 other isoform, or with tags, fused parts or gaps del 1-668/del 746-750 limits assumed): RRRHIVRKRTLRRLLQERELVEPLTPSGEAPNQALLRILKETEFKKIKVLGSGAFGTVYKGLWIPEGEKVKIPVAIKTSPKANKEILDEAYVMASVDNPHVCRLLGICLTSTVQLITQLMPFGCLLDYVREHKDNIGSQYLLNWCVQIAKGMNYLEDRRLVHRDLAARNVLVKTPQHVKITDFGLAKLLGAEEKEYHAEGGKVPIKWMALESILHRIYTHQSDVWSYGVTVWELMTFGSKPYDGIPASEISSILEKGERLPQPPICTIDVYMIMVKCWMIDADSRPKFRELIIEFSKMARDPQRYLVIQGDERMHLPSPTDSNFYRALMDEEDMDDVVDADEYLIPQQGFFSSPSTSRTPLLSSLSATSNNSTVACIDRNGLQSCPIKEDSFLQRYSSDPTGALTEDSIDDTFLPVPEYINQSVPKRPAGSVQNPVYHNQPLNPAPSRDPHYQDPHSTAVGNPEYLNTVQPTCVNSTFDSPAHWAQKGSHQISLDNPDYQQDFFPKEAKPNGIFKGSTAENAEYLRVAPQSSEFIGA
Experiment: HotSpot radiometric kinase assay, EGFR Δ746-750 mutant
Details: 10 μM ATP

{"Structure smiles string": "Cc1nn(CCO)c2c1/C=C/c1n[nH]c3ccc(cc13)-c1cnn(C)c1CN(C)CCO2", "IC50": "15 nM"}
{"Structure smiles string": "CCN1Cc2c(c(OC(C)C)nn2C[C@H](C)O)/C=C/c2n[nH]c3ccc(cc23)-c2cnn(C)c2O[C@H](C)C1", "IC50": "9.86 nM"}
{"Structure smiles string": "Cc1nn(CCO)c2c1/C=C/c1n[nH]c3ccc(cc13)-c1c(C)nn(C)c1O[C@@H](C)CN(C)C2", "IC50": "3.64 nM"}
{"Structure smiles string": "CCN1Cc2c(c(C)nn2CCO)/C=C/c2n[nH]c3ccc(cc23)-c2cnn(C)c2O[C@@H](C)C1", "IC50": "0.12 nM"}

* * *

Parameter: IC50. Scope: all listed entries.
Target: EGFR Δ746-750 mutant (Homo sapiens (Human), UniProt P00533, DEL746-750)
Assay: HotSpot radiometric kinase assay, EGFR Δ746-750 mutant
Conditions: 10 μM ATP

{"Compound": "CCN1Cc2c(c(C)nn2C)/C=C/c2n[nH]c3ccc(cc23)-c2cnn(C)c2O[C@@H](C)C1 [Example 165]", "Assayed system": "EGFR Δ746-750 mutant (Homo sapiens (Human), UniProt P00533, DEL746-750)", "IC50 [nM]": 4.84}
{"Compound": "Cc1c2c(nn1C)CN(C)CCOc1c(cnn1C)-c1ccc3[nH]nc(c3c1)/C=C/2 [Example 44]", "Assayed system": "EGFR Δ746-750 mutant (Homo sapiens (Human), UniProt P00533, DEL746-750)", "IC50 [nM]": 112}
{"Compound": "Cc1nn(C[C@H](C)O)c2c1/C=C/c1n[nH]c3ccc(cc13)-c1cnn(C)c1O[C@@H](C)CN(C)C2 [Example 123]", "Assayed system": "EGFR Δ746-750 mutant (Homo sapiens (Human), UniProt P00533, DEL746-750)", "IC50 [nM]": 1.3}
{"Compound": "CC(C)Oc1nn(CCO)c2c1/C=C/c1n[nH]c3ccc(cc13)-c1cnn(C)c1O[C@@H](CO)CN(C)C2 [Example 258]", "Assayed system": "EGFR Δ746-750 mutant (Homo sapiens (Human), UniProt P00533, DEL746-750)", "IC50 [nM]": 1.22}
{"Compound": "Cc1c2c(nn1CCN1CCCC1)CN(C)C[C@H](C)Oc1c(cnn1C)-c1ccc3[nH]nc(c3c1)/C=C/2 [Example 89]", "Assayed system": "EGFR Δ746-750 mutant (Homo sapiens (Human), UniProt P00533, DEL746-750)", "IC50 [nM]": 19.7}
{"Compound": "CCOc1nn(CCO)c2c1/C=C/c1n[nH]c3ccc(cc13)-c1cnn(C)c1O[C@@H](C)CN(CC)C2 [Example 177]", "Assayed system": "EGFR Δ746-750 mutant (Homo sapiens (Human), UniProt P00533, DEL746-750)", "IC50 [nM]": 0.56}
{"Compound": "C[C@H]1CN(C)Cc2c(c(O[C@H]3CCN(S(C)(=O)=O)C3)nn2CCO)/C=C/c2n[nH]c3ccc(cc23)-c2cnn(C)c2O1 [Example 182]", "Assayed system": "EGFR Δ746-750 mutant (Homo sapiens (Human), UniProt P00533, DEL746-750)", "IC50 [nM]": 24}
{"Compound": "Cc1c2c(nn1CCN1CCOCC1)CN(C)C[C@H](C)Oc1c(cnn1C)-c1ccc3[nH]nc(c3c1)/C=C/2 [Example 93]", "Assayed system": "EGFR Δ746-750 mutant (Homo sapiens (Human), UniProt P00533, DEL746-750)", "IC50 [nM]": 49.2}
{"Compound": "Cc1c2c(nn1[C@H]1C[C@@H](NCCN(C)C)C1)OCCCOc1c(cnn1C)-c1ccc3[nH]nc(c3c1)/C=C/2 [Example 107]", "Assayed system": "EGFR Δ746-750 mutant (Homo sapiens (Human), UniProt P00533, DEL746-750)", "IC50 [nM]": 34.1}
{"Compound": "Cc1c2c(nn1CCO)CN(C)C[C@H](C)Oc1c(cnn1C)-c1ccc3[nH]nc(c3c1)/C=C/2 [Example 60]", "Assayed system": "EGFR Δ746-750 mutant (Homo sapiens (Human), UniProt P00533, DEL746-750)", "IC50 [nM]": 89.7}
{"Compound": "CN1CCN(Cc2ccc3c(c2)O[C@@H]2CCN(CCOc4c(cnn4C)-c4ccc5[nH]nc(c5c4)/C=C/3)C2=O)CC1 [Example 92]", "Assayed system": "EGFR Δ746-750 mutant (Homo sapiens (Human), UniProt P00533, DEL746-750)", "IC50 [nM]": 7.95}
{"Compound": "CCOc1nn(CCO)c2c1/C=C/c1n[nH]c3ccc(cc13)-c1c(C)nn(C)c1O[C@H](C)CN(C1CC1)C2 [Example 204]", "Assayed system": "EGFR Δ746-750 mutant (Homo sapiens (Human), UniProt P00533, DEL746-750)", "IC50 [nM]": 1.85}
{"Compound": "Cc1c2c(nn1[C@H]1C[C@@H](N(C)CCN(C)C)C1)OCCCOc1c(cnn1C)-c1ccc3[nH]nc(c3c1)/C=C/2 [Example 102]", "Assayed system": "EGFR Δ746-750 mutant (Homo sapiens (Human), UniProt P00533, DEL746-750)", "IC50 [nM]": 48.1}
{"Compound": "CN1CCN(c2ccc3c(c2)OC2CCN(CCOc4c(cnn4C)-c4ccc5[nH]nc(c5c4)/C=C/3)C2=O)CC1 (stereo in doubt) [Example 131]", "Assayed system": "EGFR Δ746-750 mutant (Homo sapiens (Human), UniProt P00533, DEL746-750)", "IC50 [nM]": 1.65}
